These data points were gathered from patent US10736865B2.

Test: Plasma retention of 9-cis-retinyl acetate metabolites after single gastric gavage
Assay type: in vivo, C57/Bl6 mice
Settings: single 50 mg/kg gastric gavage, C57/Bl6 mice
Observed Property: Time of highest plasma levels of 9-cis-retinoids (h)
Give just the numeric value; h need not be written.

Lookup: Fill in: Time of highest plasma levels of 9-cis-retinoids of CC(=O)OC/C=C(C)/C=C/C=C(C)\C=C\C1=C(C)CCCC1(C)C [9-cis-R-Ac, 9-cis-retinyl acetate] is ___
Found: 3
